tested.on: protein-protein interaction between Kras and SOS1 (biotin-tagged human Kras loaded with GDP, His-tagged human SOS1) (Homo sapiens (Human), UniProt P01116, G12D)
assay.method.text: Protein-protein interaction inhibition between Kras and SOS1 (KrasG12D-SOS PPI) using AlphaScreen;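 also: kras produced in E. coli, Ni-coupled donor beads and streptavidin acceptor beads, excitation 680 nm with emission detected at 520–620 nm via singlet oxygen transfer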
Type: biochemical
test.parameters: AlphaScreen; biotin-tagged human Kras loaded with GDP, His-tagged human SOS1; read-out: KRAS G12D-SOS PPI IC50
Numbered stars: 1 amine (or outer) side, 2 acyl side, 3 side chain; on linkers, the order of the positions; unused ones are H or OH. Bridge positions count the residues as written; N and C are the ends. Square brackets hold non-standard residues; d marks the D form. Peptide text beside a SMILES is read from it. * marks the point of attachment. hPhe(3-Cl-4-CF3) = N[C@@H](CCc1ccc(C(F)(F)F)c(Cl)c1)C(=O)O; NMePhe(4-CF3) = CN[C@@H](Cc1ccc(C(F)(F)F)cc1)C(=O)O; NMePhe(4-F) = CN[C@@H](Cc1ccc(F)cc1)C(=O)O; NMedβ3hAla = C[C@H](CC(=O)[*:2])N(C)[*:1]; NMeGly(cPent) = CN[C@H](C(=O)O)C1CCCC1; Phe(4-Me) = Cc1ccc(C[C@H](N)C(=O)O)cc1; Hyp = O=C(O)[C@@H]1C[C@@H](O)CN1; NMeF = CN[C@@H](Cc1ccccc1)C(=O)O; NMeI = CC[C@H](C)[C@H](NC)C(=O)O; NMeD = CN[C@@H](CC(=O)O)C(=O)O; NMeL = CN[C@@H](CC(C)C)C(=O)O; NMeV = CN[C@H](C(=O)O)C(C)C; NMeA = CN[C@@H](C)C(=O)O; Piperidide = C1CCN(*)CC1; Ac5c = NC1(C(=O)O)CCCC1; Aze = O=C(O)[C@@H]1CCN1; Sar = CNCC(=O)O
Threshold-based label: IC50 under 1 nM gives TRUE, IC50 not under 1 nM gives FALSE.

Take a look at these entries with their results.
compound	class.label
CCO[C@@H]1C[C@H]2C(=O)NC3(CCCC3)C(=O)N(C)[C@@H](C3CCCC3)C(=O)N(C)[C@H](C)CC(=O)N(C)[C@@H](CC(C)C)C(=O)N[C@@H]([C@@H](C)CC)C(=O)N(C)CC(=O)N(C)CC(=O)N(C)[C@@H](Cc3ccc(C(F)(F)F)cc3)C(=O)N(C)CC(=O)N[C@@H](CCc3ccc(C(F)(F)F)c(Cl)c3)C(=O)N2C1 [Compound 541] (cyclo([Ac5c][NMeGly(cPent)][NMedβ3hAla][NMeL]I[Sar][Sar][NMePhe(4-CF3)][Sar][hPhe(3-Cl-4-CF3)][Hyp](Et)))	FALSE
CC[C@H](C)[C@@H]1NC(=O)[C@H](CC(C)C)N(C)C(=O)C[C@@H](C(=O)N(C)C)N(C)C(=O)[C@H]([C@@H](C)CC)N(C)C(=O)[C@H](C(C)C)NC(=O)[C@@H]2CCCN2C(=O)[C@H](CCc2ccc(C(F)(F)F)c(Cl)c2)NC(=O)CN(C)C(=O)[C@H](Cc2ccc(C)cc2)NC(=O)[C@@H]2CCN2C(=O)[C@H](C)N(C)C1=O [Compound 660] ([NMeL]I[NMeA][Aze][Phe(4-Me)][Sar][hPhe(3-Cl-4-CF3)]PV[NMeI][NMeD]-NMe2; lactam N-11)	FALSE
CC[C@H](C)[C@@H]1NC(=O)[C@H](CC(C)C)N(C)C(=O)C[C@@H](C(=O)N2CCCCC2)N(C)C(=O)[C@H]([C@@H](C)CC)N(C)C(=O)C2(CCCC2)NC(=O)[C@@H]2CCCN2C(=O)[C@H](CCc2ccc(C(F)(F)F)c(Cl)c2)NC(=O)CN(C)C(=O)[C@H](Cc2ccc(F)cc2)N(C)C(=O)[C@@H]2CCN2C(=O)[C@H](C)N(C)C1=O [Compound 1060] ([NMeL]I[NMeA][Aze][NMePhe(4-F)][Sar][hPhe(3-Cl-4-CF3)]P[Ac5c][NMeI][NMeD]-Piperidide; lactam N-11)	TRUE

Next, consider the following compound.
*Q* # check: IC50 < 1 nM for CC[C@H](C)[C@@H]1NC(=O)[C@H](C)N(C)C(=O)C[C@@H](C(=O)N2CCCCC2)N(C)C(=O)[C@H](C(C)C)N(C)C(=O)C2(CCCC2)NC(=O)[C@@H]2CCCN2C(=O)[C@H](CCc2ccc(C(F)(F)F)c(Cl)c2)NC(=O)[C@H]2CCCN2C(=O)[C@H](Cc2ccccc2)N(C)C(=O)[C@@H]2CCCN2C(=O)CN(C)C1=O [Compound 1839] ([NMeA]I[Sar]P[NMeF][dP][hPhe(3-Cl-4-CF3)]P[Ac5c][NMeV][NMeD]-Piperidide; lactam N-11)
*A* FALSE

Source of measurements: patent US20240148821A1
